Tested on: GM-CSF induced STAT5 phosphorylation mediated by the JAK2/JAK2 homdimeric complex
Experiment: GM-CSF Induced pSTAT5 in Human PBMC
Settings: Homo sapiens, PBMC, 20 min, read-out: PBMC_GMCSF_pSTAT5 IC50, human PBMC; GM-CSF 5 ng/mL for 20 minutes; pSTAT5
property: IC50

compound="CNc1cc(Nc2cc(F)cn(-c3cc(C)n(C)n3)c2=O)nc2c(C(=O)NC3CC3)cnn12 [I-384]" result="> 0.3 µM"
compound="CNc1cc(Nc2cccn(CC3CCCCO3)c2=O)nc2c(C(=O)N[C@H]3C[C@H]3F)cnn12 (some centres unmarked) [I-365]" result="> 50 µM"
compound="CNc1cc(Nc2cccn(-c3ccc(F)cc3)c2=O)nc2c(C(=O)NC3CCC3)cnn12 [I-246]" result="> 2.5 µM"
compound="[2H]C([2H])([2H])Oc1ncccc1Nc1cc(NC)n2ncc(C(=O)N[C@H]3C[C@H](O)C3)c2n1 [I-321]" result="> 2.5 µM"
compound="CNc1cc(Nc2cccc(N3CCCC3=O)n2)nc2c(C(=O)N[C@H]3C[C@H]3F)cnn12 [I-244]" result="> 12.5 µM"

Please state recorded IC50 (tested on GM-CSF induced STAT5 phosphorylation mediated by the JAK2/JAK2 homdimeric complex) of CNc1cc(Nc2cccnc2OC(C)C)nc2c(C(N)=O)cnn12 [I-72]
> 12.5 µM

Please state recorded IC50 (tested on GM-CSF induced STAT5 phosphorylation mediated by the JAK2/JAK2 homdimeric complex) of CNc1cc(Nc2cc(Cl)cn([C@H]3CCCOC3)c2=O)nc2c(C(=O)N[C@@H]3C[C@@H]3F)cnn12 [I-772]
> 0.3 µM

Please state recorded IC50 (tested on GM-CSF induced STAT5 phosphorylation mediated by the JAK2/JAK2 homdimeric complex) of CNc1cc(Nc2cccn([C@H]3CCCOC3)c2=O)nc2c(C(=O)NC3CCC3)cnn12 [I-354]
> 2.5 µM
